Origin of the recorded values: patent US5929075A

Tested on: apolipoprotein B
Experiment: Apolipoprotein B (apo B) inhibition test in cultured human liver cells (Hepg2-cells)
Type: cell-based
Settings: concentration of the drug needed to reduce apoB secretion to 50% of the control, overnight at 37° C.
Attribute: IC50
ATTRIBUTE MEASURED: IC50 (nM)

CC(C)Cn1cnn(-c2ccc(N3CCN(c4ccc(OC[C@@H]5CO[C@@](CSc6nncn6C)(c6ccc(Cl)cc6)O5)cc4)CC3)cc2)c1=O (relative stereo); 91
CCC(C)n1cnn(-c2ccc(N3CCN(c4ccc(OC[C@@H]5CO[C@@](CSc6nncn6C)(c6ccc(F)cc6)O5)cc4)CC3)cc2)c1=O (relative stereo); 110
CC(C)n1cnn(-c2ccc(N3CCN(c4ccc(OC[C@H]5CO[C@](CSc6ncnn6C)(c6ccc(Cl)cc6)O5)cc4)CC3)cc2)c1=O (relative stereo); 81
CCC(C)n1ncn(-c2ccc(N3CCN(c4ccc(OC[C@H]5CO[C@](CSc6nncn6CC)(c6ccc(Cl)cc6)O5)cc4)CC3)cc2)c1=O (relative stereo); 84
CCC(C)n1cnn(-c2ccc(N3CCN(c4ccc(OC[C@@H]5CO[C@@](CSc6nncn6C)(c6ccc(Cl)cc6)O5)cc4)CC3)cc2)c1=O (relative stereo); 47
CC(C)Cn1cnn(-c2ccc(N3CCN(c4ccc(OC[C@@H]5CO[C@@](CSc6nncn6C)(c6ccc(F)cc6)O5)cc4)CC3)cc2)c1=O (relative stereo); 200
CCC(C)n1ncn(-c2ccc(N3CCN(c4ccc(OC[C@H]5CO[C@](CSc6nnnn6C)(c6ccc(Cl)cc6)O5)cc4)CC3)cc2)c1=O (relative stereo); 450
CCC(CC)n1ncn(-c2ccc(N3CCN(c4ccc(OC[C@H]5CO[C@](CSc6ncnn6C)(c6ccc(F)cc6F)O5)cc4)CC3)cc2)c1=O (relative stereo); 290
Cn1ncnc1SC[C@]1(c2ccc(F)cc2)OC[C@H](COc2ccc(N3CCN(c4ccc(-n5ncn(C6CCCC6)c5=O)cc4)CC3)cc2)O1 (relative stereo); 140
CCC(C)n1ncn(-c2ccc(N3CCN(c4ccc(OC[C@H]5CO[C@](CSc6nnc(O)n6C)(c6ccc(Cl)cc6)O5)cc4)CC3)cc2)c1=O (relative stereo); 310
Cn1cnnc1SC[C@]1(c2ccc(Cl)cc2)OC[C@H](COc2ccc(N3CCN(c4ccc(-n5ccn(C6CCCC6)c5=O)cc4)CC3)cc2)O1 (relative stereo); 74

----------
Attribute: pIC50
System: apolipoprotein B
Assay: Apolipoprotein B (apo B) inhibition test in cultured human liver cells (Hepg2-cells)
Assay type: cell-based
Details: concentration of the drug needed to reduce apoB secretion to 50% of the control, overnight at 37° C.
pIC50: −log10 of the molar value.
ATTRIBUTE MEASURED: pIC50

CCC(C)n1ncn(-c2ccc(N3CCN(c4ccc(OC[C@H]5CO[C@](CSc6nc(C)co6)(c6ccc(Cl)cc6)O5)cc4)CC3)cc2)c1=O (relative stereo) [Compound 107]; 7.35
CC(C)Cn1ncn(-c2ccc(N3CCN(c4ccc(OC[C@H]5CO[C@](CSc6ncnn6C)(c6ccc(Cl)cc6)O5)cc4)CC3)cc2)c1=O (relative stereo) [Compound 61]; 7.09
CCC(C)n1ncn(-c2ccc(N3CCN(c4ccc(OC[C@@H]5CO[C@@](CSc6ncnn6C(C)C)(c6ccc(Cl)cc6)O5)cc4)CC3)cc2)c1=O (relative stereo) [Compound 82]; 7.51

----------
Attribute: pIC50
Test system: apolipoprotein B
Assay: Apolipoprotein B (apo B) inhibition test in cultured human liver cells (Hepg2-cells)
Type: cell-based
Conditions: concentration of the drug needed to reduce apoB secretion to 50% of the control, overnight at 37° C.
pIC50: −log10 of the molar value.
ATTRIBUTE MEASURED: pIC50

CCC(C)n1ncn(-c2ccc(N3CCN(c4ccc(OC[C@H]5CO[C@](CSc6ncnn6CC)(c6ccc(Cl)cc6)O5)cc4)CC3)cc2)c1=O (relative stereo) [Compound 77]; 7.15
CCCCn1cnnc1SC[C@@]1(c2ccc(Cl)cc2)OC[C@@H](COc2ccc(N3CCN(c4ccc(-n5cnn(C(C)CC)c5=O)cc4)CC3)cc2)O1 (relative stereo) [Compound 51]; 7.33
CCC(CC)n1ncn(-c2ccc(N3CCN(c4ccc(OC[C@@H]5CO[C@@](CSc6nncn6C)(c6ccc(F)cc6)O5)cc4)CC3)cc2)c1=O (relative stereo) [Compound 43]; 6.96
CCC(C)n1ncn(-c2ccc(N3CCN(c4ccc(OC[C@@H]5CO[C@@](CSc6nnc(C(F)(F)F)n6C)(c6ccc(Cl)cc6)O5)cc4)CC3)cc2)c1=O (relative stereo) [Compound 50]; 6.59
CCC(CC)n1cnn(-c2ccc(N3CCN(c4ccc(OC[C@H]5CO[C@](CSc6ncnn6C)(c6ccc(F)cc6F)O5)cc4)CC3)cc2)c1=O (relative stereo) [Compound 73]; 6.74
Cn1cnnc1SC[C@@]1(c2ccc(F)cc2F)OC[C@@H](COc2ccc(N3CCN(c4ccc(-n5cnn(C6CCCC6)c5=O)cc4)CC3)cc2)O1 (relative stereo) [Compound 37]; 6.64
CCC(C)n1ncn(-c2ccc(N3CCN(c4ccc(OC[C@H]5CO[C@](CSc6nc(C)nn6C)(c6ccc(Cl)cc6)O5)cc4)CC3)cc2)c1=O (relative stereo) [Compound 81]; 7.31
CCC(C)n1ncn(-c2ccc(N3CCN(c4ccc(OC[C@@H]5CO[C@@](CSc6nnc(C(F)(F)F)[nH]6)(c6ccc(Cl)cc6)O5)cc4)CC3)cc2)c1=O (relative stereo) [Compound 49]; 6.07
CC(C)Cn1cnn(-c2ccc(N3CCN(c4ccc(OC[C@H]5CO[C@](CSc6ncn[nH]6)(c6ccc(Cl)cc6)O5)cc4)CC3)cc2)c1=O (relative stereo) [Compound 84]; 7.55
CCC(CC)n1cnn(-c2ccc(N3CCN(c4ccc(OC[C@@H]5CO[C@@](CSc6nncn6C)(c6ccc(Cl)cc6)O5)cc4)CC3)cc2)c1=O (relative stereo) [Compound 7]; 7.10
CCCn1cnn(-c2ccc(N3CCN(c4ccc(OC[C@@H]5CO[C@@](CSc6nncn6C)(c6ccc(Cl)cc6)O5)cc4)CC3)cc2)c1=O (relative stereo) [Compound 8]; 6.89
CC(C)n1ncn(-c2ccc(N3CCN(c4ccc(OC[C@@H]5CO[C@@](CSc6nncn6C)(c6ccc(Cl)cc6)O5)cc4)CC3)cc2)c1=O (relative stereo) [Compound 33]; 7.04

----------
System: apolipoprotein B
Assay: Apolipoprotein B (apo B) inhibition test in cultured human liver cells (Hepg2-cells)
Format: cell-based
Conditions: concentration of the drug needed to reduce apoB secretion to 50% of the control, overnight at 37° C.
Method: Cultured human liver cells (Hepg2-cells), which synthesize and secrete low-density lipoproteins, were incubated overnight at 37° C. in a liquid medium containing radioactively labelled leucine. […] Quantification of the amount of apolipoprotein B synthesized during the night resulted from measuring the radioactivity of the isolated complex. […] For each experiment the inhibition of apolipoprotein-B formation was expressed as […]
Lab note - cut at 50 nM for IC50: Satisfied if strictly below, Not satisfied if not.

CCC(C)n1ncn(-c2ccc(N3CCN(c4ccc(OC[C@H]5CO[C@](CSc6nc(C)cc(C)n6)(c6ccc(Cl)cc6)O5)cc4)CC3)cc2)c1=O (relative stereo); Not satisfied
CCC(CC)n1cnn(-c2ccc(N3CCN(c4ccc(OC[C@@H]5CO[C@@](CSc6nncn6C)(c6ccc(F)cc6)O5)cc4)CC3)cc2)c1=O (relative stereo); Not satisfied
CC[C@H](C)n1ncn(-c2ccc(N3CCN(c4ccc(OC[C@@H]5CO[C@@](CSc6nncn6C)(c6ccc(Cl)cc6)O5)cc4)CC3)cc2)c1=O; Not satisfied
CCCCn1cnn(-c2ccc(N3CCN(c4ccc(OC[C@@H]5CO[C@@](CSc6nncn6C)(c6ccc(Cl)cc6)O5)cc4)CC3)cc2)c1=O (relative stereo); Satisfied
CCC(C)n1cnn(-c2ccc(N3CCN(c4ccc(OC[C@H]5CO[C@](CSc6ncn[nH]6)(c6ccc(Cl)cc6)O5)cc4)CC3)cc2)c1=O (relative stereo); Satisfied
